measurement-target: MjavOBP2
settings: read-out: K d (competitive binding); pH 7.4
experimental-endpoint: pKd
Answer as the number alone; pKd is minus log10 of concentration in mol/L.

QUERY: Tell me the measured pKd of Cc1c[nH]c2ccccc12 [skatole, 3-methylindole] , please.
RESULT: 4.39

QUERY: Tell me the measured pKd of CCCCCCCCCC(C)=O [2-undecanone, 2-Undecanone] , please.
RESULT: 4.26

###

measurement-target: MjavOBP1
settings: read-out: K d (competitive binding); pH 7.4
experimental-endpoint: Kd (µM)
The reply should contain only the number, in µM.

QUERY: Checklist item: Kd tested on MjavOBP1, entry "CCCCCCCCCC(C)=O" , value?
RESULT: 56.6

QUERY: Checklist item: Kd tested on MjavOBP1, entry CCCCCCCC1CCCC(=O)O1 (centres unmarked) , value?
RESULT: 38.7
